Where these numbers come from: patent US20250179045A1

SYSTEM_UNDER_TEST: human LPA1 (Homo sapiens)
ASSAY_INFO: In vitro functional assay of lysophosphatidic acid receptor 1 activity (calcium flux)
Assay type: cell-based
COND: B103 cells stably expressing human LPA1; Fluo-4 NW calcium flux after lysophosphatidic acid (18:1) at EC80; compounds 100 pM to 10 μM; read-out: LPA1 IC50
pIC50: −log10 of the molar value.
# pIC50 per entry

[
  {
    "COMPOUND": "CC(=O)N1CC2(C1)CC(C(=O)Nc1ccc(C)nc1OC(F)F)(c1ccccc1C(C)C)C2",
    "ASSAY_RESULT": "< 6.00"
  },
  {
    "COMPOUND": "COc1nc(Cl)ccc1NC(=O)C1(c2ccccc2C(C)C)COC1",
    "ASSAY_RESULT": "< 6.00"
  },
  {
    "COMPOUND": "COc1ccc(NC(=O)C2(c3ccccc3C(C)C)CCC(C)(O)CC2)c(OC(F)F)n1 (single isomer, unassigned) [Example 83-isomer B]",
    "ASSAY_RESULT": "7.00 to 8.00"
  }
]

Turning now to a further compound:
Value of measured pIC50 for the entry CC(C)c1ccccc1C1(C(=O)Nc2ccc(F)cc2OC(F)F)CC(=O)N(C)C1 (centres unmarked) : 6.00 to 7.00

###

Documented IC50 across a set of molecules
SYSTEM_UNDER_TEST: human LPA1 (Homo sapiens, UniProt Q92633)
Sequence (Q92633 whole entry): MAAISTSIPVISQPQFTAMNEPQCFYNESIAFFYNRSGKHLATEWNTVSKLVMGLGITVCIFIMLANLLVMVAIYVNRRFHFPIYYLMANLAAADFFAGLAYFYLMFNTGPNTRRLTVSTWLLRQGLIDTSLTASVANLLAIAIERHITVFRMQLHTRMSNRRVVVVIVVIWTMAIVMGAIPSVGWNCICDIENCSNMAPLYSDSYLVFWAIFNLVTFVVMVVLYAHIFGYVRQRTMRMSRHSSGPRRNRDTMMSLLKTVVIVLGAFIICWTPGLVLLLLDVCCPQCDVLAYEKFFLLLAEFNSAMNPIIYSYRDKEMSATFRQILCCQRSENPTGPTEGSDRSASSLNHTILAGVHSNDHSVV
ASSAY_INFO: In vitro functional assay of lysophosphatidic acid receptor 1 activity (calcium flux)
Format: cell-based
COND: B103 cells stably expressing human LPA1; Fluo-4 NW calcium flux after lysophosphatidic acid (18:1) at EC80; compounds 100 pM to 10 μM; read-out: LPA1 IC50

Here are 2 molecules together with their reported answers.
[
  {
    "MOLECULE": "COc1ccc(NC(=O)C2(c3ccccc3C(C)C)CCC(N=[N+]=[N-])CC2)c(OC(F)F)n1 (centres unmarked)",
    "ASSAY_RESULT": "10 to 100 nM"
  },
  {
    "MOLECULE": "COc1ccc(NC(=O)C2(c3ccccc3C(C)C)CC(CC#N)C2)c(OC(F)F)n1 (centres unmarked)",
    "ASSAY_RESULT": "10 to 100 nM"
  }
]

Documented IC50 of CCOCN1CC(C(=O)Nc2ncc(Cl)cc2OC(F)F)(c2ccccc2C(C)C)CC1=O (centres unmarked) : 100 to 1000 nM

Field IC50 (entry Cc1ccc(NC(=O)C2(c3ccccc3C(C)C)CC(CC(=O)N(C)C)C2)c(OC(F)F)n1 (centres unmarked) ) reads 100 to 1000 nM

For COc1ccc(NC(=O)C2(c3ccccc3C(C)C)CC(=O)N(C)C2)c(OC(F)F)n1 (single isomer, unassigned) the molecule record lists IC50 as 10 to 100 nM

For reference, reported IC50 for "COc1ccc(NC(=O)[C@]2(c3ccccc3C(C)C)C[C@H](CC(N)=O)C2)c(OC(F)F)n1" stands at 10 to 100 nM

###

SYSTEM_UNDER_TEST: human LPA1 (Homo sapiens)
ASSAY_INFO: In vitro functional assay of lysophosphatidic acid receptor 1 activity (calcium flux)
Assay type: cell-based
COND: B103 cells stably expressing human LPA1; Fluo-4 NW calcium flux after lysophosphatidic acid (18:1) at EC80; compounds 100 pM to 10 μM; read-out: LPA1 IC50
In this section, each of the compounds is paired with its reported IC50.

[
  {
    "COMPOUND": "COc1ccc(NC(=O)C2(c3ccccc3C(C)C)CCC(O)CC2)c(OC(F)F)n1 (mixture of isomers) [Example 81]",
    "ASSAY_RESULT": "10 to 100 nM"
  }
]

# value of IC50, human LPA1 (Homo sapiens), item COc1ccc(NC(=O)C2(c3ccccc3C(C)C)CCC(C(N)=O)CC2)c(OC(F)F)n1 (mixture of isomers) [Example 96] = 100 to 1000 nM

Record Cc1ccc(NC(=O)C2(c3ccccc3C(C)C)CC(N3CC(O)C3)C2)c(OC(F)F)n1 (stereo not drawn) [Example 42] has human LPA1 (Homo sapiens) IC50 equal to 100 to 1000 nM

Sample Cc1ccc(NC(=O)C2(c3ccccc3C(C)C)CC(S(N)(=O)=O)C2)c(OC(F)F)n1 (mixture of isomers) [Example 69] , system: human LPA1 (Homo sapiens). Its IC50 is 10 to 100 nM

Kindly note: human LPA1 (Homo sapiens), CC(C)c1ccccc1C1(C(=O)Nc2ncc(Br)cc2OC(F)F)COC1 [Example 24] , IC50 value reported: 10 to 100 nM

Item COc1ccc(NC(=O)[C@]2(c3ccccc3C(C)C)C[C@@H](CC(N)=O)C2)c(OC(F)F)n1 [Example 118] ; assay system human LPA1 (Homo sapiens); IC50 reported as 10 to 100 nM

Record Cc1ccc(NC(=O)C2(c3ccccc3C(C)C)CC(C(=O)N(C)C)C2)c(OC(F)F)n1 (stereo not drawn) [Example 66] has human LPA1 (Homo sapiens) IC50 equal to 100 to 1000 nM

Summary: CNC1CC(C(=O)Nc2ccc(C)nc2OC(F)F)(c2ccccc2C(C)C)C1 (mixture of isomers) [Example 38] , human LPA1 (Homo sapiens), IC50 = 100 to 1000 nM

Item CNS(=O)(=O)C1CCC(C(=O)Nc2ccc(OC)nc2OC(F)F)(c2ccccc2C(C)C)CC1 (stereo not drawn) [Example 99] ; assay system human LPA1 (Homo sapiens); IC50 reported as 100 to 1000 nM

For CC(C)c1ccccc1C1(C(=O)Nc2cccnc2OC(F)F)CC(=O)N(C)C1 (stereo not drawn) [Example 2] on human LPA1 (Homo sapiens), measured IC50 was 100 to 1000 nM

Entry COc1ccc(NC(=O)C2(c3ccccc3C(C)C)CC(CO)C2)c(OC)n1 (stereo not drawn) [Example 60] ; assay system human LPA1 (Homo sapiens); IC50 recorded at 10 to 100 nM

Entry CC(C)c1ccccc1C1(C(=O)Nc2ncc(Cl)cc2OC(F)F)CC(O)(C(F)(F)C(=O)O)C1 (single isomer, unassigned) [Example 55-isomer B] , tested on human LPA1 (Homo sapiens), has a reported IC50 of 10 to 100 nM
